measured.target: Receptor-type tyrosine-protein kinase FLT3 (Homo sapiens, UniProt P36888)
Sequence (P36888 whole entry): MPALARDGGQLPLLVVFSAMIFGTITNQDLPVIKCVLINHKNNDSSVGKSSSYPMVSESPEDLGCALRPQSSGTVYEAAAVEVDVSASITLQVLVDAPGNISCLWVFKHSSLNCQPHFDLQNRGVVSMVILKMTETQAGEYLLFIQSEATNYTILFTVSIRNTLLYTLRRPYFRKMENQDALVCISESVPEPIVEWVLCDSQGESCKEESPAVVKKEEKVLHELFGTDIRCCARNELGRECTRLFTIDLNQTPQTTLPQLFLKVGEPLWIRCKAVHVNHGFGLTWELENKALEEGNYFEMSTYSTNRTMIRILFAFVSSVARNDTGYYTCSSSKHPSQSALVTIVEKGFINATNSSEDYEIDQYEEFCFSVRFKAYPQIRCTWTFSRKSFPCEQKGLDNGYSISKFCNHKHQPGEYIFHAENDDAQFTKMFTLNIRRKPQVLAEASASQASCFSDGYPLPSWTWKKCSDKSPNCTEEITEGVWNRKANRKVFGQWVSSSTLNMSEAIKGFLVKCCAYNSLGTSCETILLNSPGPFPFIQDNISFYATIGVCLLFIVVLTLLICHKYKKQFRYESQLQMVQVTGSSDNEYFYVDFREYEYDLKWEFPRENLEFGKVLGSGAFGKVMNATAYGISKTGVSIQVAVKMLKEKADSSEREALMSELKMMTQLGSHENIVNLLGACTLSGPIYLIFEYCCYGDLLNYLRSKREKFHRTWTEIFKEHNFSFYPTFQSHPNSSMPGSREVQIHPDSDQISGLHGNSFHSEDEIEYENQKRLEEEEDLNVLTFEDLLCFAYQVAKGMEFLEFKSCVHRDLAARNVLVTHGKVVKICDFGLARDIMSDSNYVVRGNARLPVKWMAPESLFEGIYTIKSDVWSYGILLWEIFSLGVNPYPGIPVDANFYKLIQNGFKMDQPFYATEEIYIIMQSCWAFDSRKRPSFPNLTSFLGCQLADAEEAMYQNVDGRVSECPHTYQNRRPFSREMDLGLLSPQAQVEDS
measurement.protocol: Sci. USA 1988, 85(23), 9312). Specific steps were as follows: The compound of the present invention was dissolved in dimethyl sulfoxide (DMSO) to make a stock solution of 2 mM, then the stock solution was diluted with DMSO following a 7 half-log series to concentrations ranging from 2 uM to 600 pM.
measured.parameter: IC50 (nM)
Form entry: value (nM) — number only.

Prompt: Hi! What's the reported IC50 for `COc1cc2c(Oc3ccc(NC(=O)C4(C(=O)Nc5ccc(F)cc5)CC4)cc3F)ccnc2cc1OCCCC(=O)NO` on Receptor-type tyrosine-protein kinase FLT3 (Homo sapiens, UniProt P36888)?
Response: 31

###

measured.target: Tyrosine-protein kinase receptor UFO (Homo sapiens, UniProt P30530)
Sequence (P30530 whole entry): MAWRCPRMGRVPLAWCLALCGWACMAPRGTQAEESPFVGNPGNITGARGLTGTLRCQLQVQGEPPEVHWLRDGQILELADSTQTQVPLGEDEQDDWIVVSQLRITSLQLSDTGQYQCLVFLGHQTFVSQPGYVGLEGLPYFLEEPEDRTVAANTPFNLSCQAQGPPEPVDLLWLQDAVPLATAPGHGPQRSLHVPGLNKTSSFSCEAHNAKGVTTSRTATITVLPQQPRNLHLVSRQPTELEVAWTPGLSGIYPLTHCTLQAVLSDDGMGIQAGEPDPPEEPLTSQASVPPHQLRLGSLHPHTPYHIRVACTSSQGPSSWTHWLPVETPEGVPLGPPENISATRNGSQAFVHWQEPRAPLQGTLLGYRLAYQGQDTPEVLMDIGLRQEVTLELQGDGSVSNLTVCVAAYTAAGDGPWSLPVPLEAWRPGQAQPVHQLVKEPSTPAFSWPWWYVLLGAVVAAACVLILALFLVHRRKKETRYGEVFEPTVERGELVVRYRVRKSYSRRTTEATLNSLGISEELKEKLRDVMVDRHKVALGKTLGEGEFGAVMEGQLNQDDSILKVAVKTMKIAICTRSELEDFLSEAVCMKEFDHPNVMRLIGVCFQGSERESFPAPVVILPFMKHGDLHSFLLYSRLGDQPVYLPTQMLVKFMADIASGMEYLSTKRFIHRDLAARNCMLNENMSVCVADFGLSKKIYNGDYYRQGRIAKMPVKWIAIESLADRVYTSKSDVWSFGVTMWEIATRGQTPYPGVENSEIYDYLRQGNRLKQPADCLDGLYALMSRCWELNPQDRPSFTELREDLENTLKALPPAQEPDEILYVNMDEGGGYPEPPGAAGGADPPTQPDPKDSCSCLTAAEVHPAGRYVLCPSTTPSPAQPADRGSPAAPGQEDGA
measurement.protocol: Sci. USA 1988, 85(23), 9312). Specific steps were as follows: The compound of the present invention was dissolved in dimethyl sulfoxide (DMSO) to make a stock solution of 2 mM, then the stock solution was diluted with DMSO following a 7 half-log series to concentrations ranging from 2 uM to 600 pM.
Type: cell-based
measured.parameter: pIC50
The read-out pIC50 is expressed as -log10 of concentration in moles per litre.

Prompt: Quick check: pIC50 of `COc1cc2c(Oc3ccc(NC(=O)C4(C(=O)Nc5ccc(F)cc5)CC4)cc3F)ccnc2cc1OCCCC(=O)NO` ?
Response: 7.72

###

Provide the reported IC50 of each item.
measured.target: Histone deacetylase 8 (Homo sapiens)
Sequence (Q9BY41 whole entry): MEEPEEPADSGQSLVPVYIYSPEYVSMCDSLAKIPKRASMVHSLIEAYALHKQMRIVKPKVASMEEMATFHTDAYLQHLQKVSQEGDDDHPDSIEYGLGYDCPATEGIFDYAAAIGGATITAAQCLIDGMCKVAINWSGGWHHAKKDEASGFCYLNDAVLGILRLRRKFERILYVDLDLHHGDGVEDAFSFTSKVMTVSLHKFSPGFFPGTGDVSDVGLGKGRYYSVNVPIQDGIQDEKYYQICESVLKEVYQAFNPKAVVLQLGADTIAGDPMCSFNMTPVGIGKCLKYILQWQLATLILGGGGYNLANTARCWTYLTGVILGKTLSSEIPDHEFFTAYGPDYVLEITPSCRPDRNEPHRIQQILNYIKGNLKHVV
measurement.protocol: Inhibition Assay: The inhibitions of activities of HDAC enzymes by the compounds N1'-[3-fluoro-4-[[7-[4-(hydroxyamino)-4-oxobutoxy]-6-methoxy-4-quinolyl]oxy]phenyl]-N1-(4-fluoro phenyl)cyclopropane-1,1-dicarboxamide prepared in Example 9 and N1'-[3-fluoro-4-[[7-[6-(hydroxyamino)-6-oxohexyloxy]-6-methoxy-4-quinolyl]oxy]phenyl]-N1-(4-fluo rophenyl)cyclopropane-1,1-dicarboxamide prepared in Example 13 were measured by Reaction Biology Corporation (Reaction Biology Corp., One Great Valley Parkway, Suite 2, Malvern, PA 19355, USA . http://www.reactionbiology.com/pages/hdac.htm). The HDAC enzymes tested include the following 11 HDAC isoforms: HDAC1, HDAC2, HDAC3, HDAC4, HDAC5, HDAC6, HDAC7, HDAC8, HDAC9, HDAC10 and HDAC11.Specific steps were as follows: The compound of the present invention was dissolved in dimethyl sulfoxide (DMSO) to make a stock solution of 10 mM. The stock solution was diluted in 4-fold series starting from 10 mM to prepare 10 different dosages.
Form entry: value (µM) — number only.

Prompt: Quick check: IC50 of `COc1cc2c(Oc3ccc(NC(=O)C4(C(=O)Nc5ccc(F)cc5)CC4)cc3F)ccnc2cc1OCCCCCC(=O)NO` ?
Response: 1.63

Prompt: Quick check: IC50 of `COc1cc2c(Oc3ccc(NC(=O)C4(C(=O)Nc5ccc(F)cc5)CC4)cc3F)ccnc2cc1OCCCC(=O)NO` ?
Response: 8.94

###

measured.target: Histone deacetylase 11 (Homo sapiens)
Sequence (Q96DB2 whole entry): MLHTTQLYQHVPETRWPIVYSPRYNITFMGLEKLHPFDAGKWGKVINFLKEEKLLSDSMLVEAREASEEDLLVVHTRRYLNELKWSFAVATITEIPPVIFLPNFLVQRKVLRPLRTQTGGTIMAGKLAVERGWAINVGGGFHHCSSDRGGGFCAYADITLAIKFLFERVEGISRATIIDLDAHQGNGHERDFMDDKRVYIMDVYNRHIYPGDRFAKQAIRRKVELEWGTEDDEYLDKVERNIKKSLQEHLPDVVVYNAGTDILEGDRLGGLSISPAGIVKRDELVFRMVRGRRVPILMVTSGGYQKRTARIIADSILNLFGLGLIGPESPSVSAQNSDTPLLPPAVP
measurement.protocol: Inhibition Assay: The inhibitions of activities of HDAC enzymes by the compounds N1'-[3-fluoro-4-[[7-[4-(hydroxyamino)-4-oxobutoxy]-6-methoxy-4-quinolyl]oxy]phenyl]-N1-(4-fluoro phenyl)cyclopropane-1,1-dicarboxamide prepared in Example 9 and N1'-[3-fluoro-4-[[7-[6-(hydroxyamino)-6-oxohexyloxy]-6-methoxy-4-quinolyl]oxy]phenyl]-N1-(4-fluo rophenyl)cyclopropane-1,1-dicarboxamide prepared in Example 13 were measured by Reaction Biology Corporation (Reaction Biology Corp., One Great Valley Parkway, Suite 2, Malvern, PA 19355, USA . http://www.reactionbiology.com/pages/hdac.htm). The HDAC enzymes tested include the following 11 HDAC isoforms: HDAC1, HDAC2, HDAC3, HDAC4, HDAC5, HDAC6, HDAC7, HDAC8, HDAC9, HDAC10 and HDAC11.Specific steps were as follows: The compound of the present invention was dissolved in dimethyl sulfoxide (DMSO) to make a stock solution of 10 mM. The stock solution was diluted in 4-fold series starting from 10 mM to prepare 10 different dosages.
measured.parameter: pIC50
The read-out pIC50 is expressed as -log10 of concentration in moles per litre.

Prompt: Hi! What's the reported pIC50 for `COc1cc2c(Oc3ccc(NC(=O)C4(C(=O)Nc5ccc(F)cc5)CC4)cc3F)ccnc2cc1OCCCCCC(=O)NO` on Histone deacetylase 11 (Homo sapiens)?
Response: 5.21
